Assay: Cmax in Beagle dog at 30 mg/kg, po administered as solution
Format: ADME, organism-based, Canis lupus familiaris
Settings: in vivo
observedProperty: Cmax (ng/mL)
Give a bare numeral; the unit ng/mL is implied.

Request: Entry Cc1cccc(F)c1N1CCC(N2Cc3ccccc3N(Cc3ccccc3C(F)(F)F)C2=O)CC1 needs its Cmax filled in; supply it.
Result: 2530

---

Experiment: Lipophilicity, logD of compound in 1-octanol/phosphate buffer at pH 7.4 by shake-flask method
Assay type: physicochemical
For each of the compounds below, state its logD.

Request: For the compound COc1cccc2c1n(Cc1ccccc1C(F)(F)F)c(=O)n2C1CCN(c2c(C)cccc2C)CC1 , give its measured logD value.
Result: > 4.1

Request: Identify measured logD corresponding to Cc1cccc(F)c1N1CCC(N2Cc3ccccc3N(Cc3ccccc3C(F)(F)F)C2=O)CC1
Result: > 4.1
